- Test system: HEK-293T
- protocol_description: Multiplex assay against HEK293T
- Type: toxicity, cell-based
- stated_conditions: human, 48 h, 1 µM, compound concentration 1 uM, replicate 1
observable: Population Membrane Permeable-Phenotype (%)

chemical_structure=Cl.NC[C@@H]1O[C@H](C23CC4CC(CC(C4)C2)C3)Cc2c1ccc(O)c2O measured_value=6
chemical_structure=CC(/C=C1\SC(=S)N(CCCC(=O)Nc2ccc(C(=O)O)c(O)c2)C1=O)=C\c1ccccc1 measured_value=4
chemical_structure=C[C@@H](Oc1cc(-n2cnc3ccc(CN4CCN(C)CC4)cc32)sc1C(N)=O)c1ccccc1C(F)(F)F measured_value=2

* * *

- Tested on: U2OS
- protocol_description: Multiplex assay against U2OS
- Assay type: toxicity, cell-based
- stated_conditions: human, 48 h, 10 µM, compound concentration 10 uM, replicate 2
observable: Population Membrane Permeable-Phenotype (%)

compound="CN1C(=O)[C@@H](NC(=O)c2cc3ccccc3[nH]2)N=C(c2ccccc2)c2ccccc21 [DEVAZEPIDE]" measured_value=55%
compound=Cc1c(P(=S)(c2ccccc2)c2ccccc2)n2ccccc2[n+]1C/C=C/c1ccccc1.[Br-] measured_value=75%
compound=CN(c1cc(C(F)(F)F)nc(OCCC(=O)O)n1)c1cccc2c1CCC2 measured_value=1%
compound=CCCCN(CC)c1nc(C)nc2c1c(C)cn2-c1c(C)cc(C)cc1C.Cl measured_value=6%
compound="CC(Cc1ccc(O)c(O)c1)C(C)Cc1ccc(O)c(O)c1 (centres undefined) [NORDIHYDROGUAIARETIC ACID]" measured_value=4%
compound=CC(C)[C@H](CO)Nc1nc(Nc2cccc(Cl)c2)c2ncn(C(C)C)c2n1 measured_value=58%
compound=CC(/C=C1\SC(=S)N(CCCC(=O)Nc2ccc(C(=O)O)c(O)c2)C1=O)=C\c1ccccc1 measured_value=1%
compound=Cl.NC[C@@H]1O[C@H](C23CC4CC(CC(C4)C2)C3)Cc2c1ccc(O)c2O measured_value=80%
compound=Cc1c(Nc2ccc(S(=O)(=O)N3CCN(C)CC3)cc2F)nc2ccc(-c3cnn(C4CC4)c3)cn2c1=O measured_value=11%
compound=N#Cc1cccc(C(=O)Nc2cc(-c3ccccc3)nn2-c2ccccc2)c1 measured_value=52%
compound=CCCc1cc(C)[nH]c(=O)c1CNC(=O)c1cc(-c2ccc(N3CCN(C(C)C)CC3)nc2)cc2c1cnn2C(C)C measured_value=96%
compound=N#CCNC(=O)c1ccc(-c2ccnc(Nc3ccc(N4CCOCC4)cc3)n2)cc1 measured_value=26%
compound=c1ccc(-c2oc3ncnc(NC[C@@H]4CCCO4)c3c2-c2ccccc2)cc1 measured_value=62%
compound=C=CC(=O)Nc1cc(-n2c(=O)ccc3cnc4ccc(-c5ccc(NS(C)(=O)=O)cc5)cc4c32)ccc1C measured_value=22%
compound=Oc1cccc(-c2nc(N3CCOCC3)c3oc4ncccc4c3n2)c1 measured_value=85%
compound=Cc1ccc(S(=O)(=O)NC2c3ccccc3Oc3ccccc32)cc1 measured_value=17%
compound=CN1CCN(Cc2ccc(-c3cnc4[nH]cc(-c5ccc6[nH]ccc6c5)c4c3)cc2)CC1 measured_value=100%
compound=C[C@@H](Oc1cc(-n2cnc3ccc(CN4CCN(C)CC4)cc32)sc1C(N)=O)c1ccccc1C(F)(F)F measured_value=97%
compound="CCCCCNC(=N)N/N=C/c1c[nH]c2ccc(OC)cc12.O=C(O)/C=C\\C(=O)O [TEGASEROD MALEATE]" measured_value=90%

* * *

- Tested on: HEK-293T
- protocol_description: Multiplex assay against HEK293T
- Format: toxicity, cell-based
- stated_conditions: human, 12 h, 10 µM, compound concentration 10 uM, replicate 1
observable: Population Fragmented Nuclei (%)

compound=N#CCNC(=O)c1ccc(-c2ccnc(Nc3ccc(N4CCOCC4)cc3)n2)cc1 measured_value=6
compound="CN1C(=O)[C@@H](NC(=O)c2cc3ccccc3[nH]2)N=C(c2ccccc2)c2ccccc21 [DEVAZEPIDE]" measured_value=11
compound=Cc1ccc(NC(=O)Nc2cc(C(F)(F)F)ccc2F)cc1Nc1ccc2c(c1)NC(=O)/C2=C\c1ccc[nH]1 measured_value=10

* * *

- System: HEK-293T
- protocol_description: Multiplex assay against HEK293T
- Format: toxicity, cell-based
- stated_conditions: human, 24 h, 1 µM, compound concentration 1 uM, replicate 1
Population Mitotic Cells (%) overview
observable: Population Mitotic Cells (%)

compound="NC(=O)c1ccc2nc(-c3ccc(C4(N)CCC4)cc3)c(-c3ccccc3)n2n1 [BAY-1125976]" uom=% measured_value=67
compound="Cl.Cn1c2c(c3ccc(Cl)c(Cl)c31)C(C#N)C1(CCNCC1)NC2=O (centres undefined)" uom=% measured_value=83
compound="CC(C)[C@H](CO)Nc1nc(Nc2cccc(Cl)c2)c2ncn(C(C)C)c2n1 [PURVALANOLA]" uom=% measured_value=57
compound=Cc1c(Nc2ccc(S(=O)(=O)N3CCN(C)CC3)cc2F)nc2ccc(Nc3cnn(C4CC4)c3)cn2c1=O uom=% measured_value=72
compound=N#Cc1cccc(C(=O)Nc2cc(-c3ccccc3)nn2-c2ccccc2)c1 uom=% measured_value=54
compound=CCCCN(CC)c1nc(C)nc2c1c(C)cn2-c1c(C)cc(C)cc1C.Cl uom=% measured_value=51
compound="N#CCNC(=O)c1ccc(-c2ccnc(Nc3ccc(N4CCOCC4)cc3)n2)cc1 [MOMELOTINIB]" uom=% measured_value=62
compound=C=CC(=O)Nc1cc(-n2c(=O)ccc3cnc4ccc(-c5ccc(NS(C)(=O)=O)cc5)cc4c32)ccc1C uom=% measured_value=57

* * *

- Tested on: U2OS
- protocol_description: Incucyte cell viability with U2OS; also: filed as whole numbers so only -1 and 0 and 1 occur
- Type: toxicity, cell-based
- stated_conditions: human, 24 h, 10 µM, compound concentration 10 uM, replicate number 1, timepoint 24 hours
Measured Growth Rate, listed per entry.
observable: Growth Rate

compound=Cc1c(Nc2ccc(S(=O)(=O)N3CCN(C)CC3)cc2F)nc2ccc(Nc3cnn(C4CC4)c3)cn2c1=O measured_value=0
compound=Cl.NC[C@@H]1O[C@H](C23CC4CC(CC(C4)C2)C3)Cc2c1ccc(O)c2O measured_value=0
compound=Cc1c(Nc2ccc(S(=O)(=O)N3CCN(C)CC3)cc2F)nc2ccc(-c3cnn(C4CC4)c3)cn2c1=O measured_value=0
compound=CC(/C=C1\SC(=S)N(CCCC(=O)Nc2ccc(C(=O)O)c(O)c2)C1=O)=C\c1ccccc1 measured_value=1
compound="CCCCCNC(=N)N/N=C/c1c[nH]c2ccc(OC)cc12.O=C(O)/C=C\\C(=O)O [TEGASEROD MALEATE]" measured_value=0
compound=CC1=C2C[C@H]3[C@@H](CC=C4C[C@@H](O)CC[C@@]43C)[C@@H]2CC[C@]12O[C@@H]1C[C@H](C)CN[C@H]1[C@H]2C measured_value=1
compound=N#CC1(c2ccccn2)CCN(Cc2cc(C(=O)O)c(=O)n3ccccc23)CC1 measured_value=0
compound=COc1ncc(F)cc1CNc1ccc(Cc2c[nH]c3ncc(C)cc23)c(F)n1 measured_value=0
compound="CC(C)(Cc1ccccc1)NCC(O)c1ccc(O)c(NS(C)(=O)=O)c1.Cl (configuration not stated) [ZINTEROL HYDROCHLORIDE]" measured_value=1
compound=COc1cc(OC)c(NC(=O)c2ccc(Cc3cc4c(cc3C)C(C)(C)CCC4(C)C)o2)c(OC)c1 measured_value=0
compound=CCOP(=O)(OCC)C(=Cc1cc(C(C)(C)C)c(O)c(C(C)(C)C)c1)P(=O)(OCC)OCC measured_value=0
compound=CCCc1cc(C)[nH]c(=O)c1CNC(=O)c1cc(-c2ccc(N3CCN(C(C)C)CC3)nc2)cc2c1cnn2C(C)C measured_value=0
compound=C/C(=N\NC(=O)[C@@H]1C(=O)NC[C@H]1c1ccccc1)c1cccc(Br)c1 measured_value=0
compound=Cc1cc(OCC(=O)O)cc(C)c1Cc1ccc(O)c(C(C)C)c1 measured_value=1
compound="CN(C)CCCN1c2ccccc2CCc2ccccc21.Cl [IMIPRAMINE HYDROCHLORIDE]" measured_value=1
compound=CCCCN(Cc1ccccc1)C(=O)c1ccc(S(=O)(=O)Nc2ccccc2)cc1 measured_value=1
compound=Cc1ccc(NC(=O)Nc2cc(C(F)(F)F)ccc2F)cc1Nc1ccc2c(c1)NC(=O)/C2=C\c1ccc[nH]1 measured_value=0

* * *

# Population Pyknosed Nuclei (%) listing for each entry below
- System: U2OS
- protocol_description: Multiplex assay against U2OS
- Assay type: toxicity, cell-based
- stated_conditions: human, 12 h, 1 µM, compound concentration 1 uM, replicate 2
observable: Population Pyknosed Nuclei (%)

chemical_structure=Cc1c(Nc2ccc(S(=O)(=O)N3CCN(C)CC3)cc2F)nc2ccc(Nc3cnn(C4CC4)c3)cn2c1=O tgt=U2OS observable="Population Pyknosed Nuclei (%)" measured_value=3%
chemical_structure=N#CCNC(=O)c1ccc(-c2ccnc(Nc3ccc(N4CCOCC4)cc3)n2)cc1 tgt=U2OS observable="Population Pyknosed Nuclei (%)" measured_value=9%
chemical_structure=CCOC(=O)CCNc1cc(N2CCc3ccccc3CC2)nc(-c2ccccn2)n1 tgt=U2OS observable="Population Pyknosed Nuclei (%)" measured_value=9%
chemical_structure=Oc1cccc(-c2nc(N3CCOCC3)c3oc4ncccc4c3n2)c1 tgt=U2OS observable="Population Pyknosed Nuclei (%)" measured_value=26%
chemical_structure=CCCc1cc(C)[nH]c(=O)c1CNC(=O)c1cc(-c2ccc(N3CCN(C(C)C)CC3)nc2)cc2c1cnn2C(C)C tgt=U2OS observable="Population Pyknosed Nuclei (%)" measured_value=9%

Recorded values, source ChEMBL document CHEMBL4689842.
